Assay: Kinetic modeling of urinary aPM with a pseudo one-compartment nonlinear mixed-effects model after α-pinene inhalation
Assay type: in vivo, human
Settings: human urine after α-pinene inhalation; pseudo one-compartment model
Overview of recorded Ka, first-order generation constant for various compounds
Please respond with the number in h⁻¹ and leave the unit unwritten.

Answered examples (5):
CC1(C)C2CC=C(C(=O)OC3OC(C(=O)O)C(O)C(O)C3O)C1C2 (single isomer, unassigned) [aPM3b, Myrtenic acid-GlcA]: 1.98
CC1(C)C2CC1C(OC1OC(C(=O)O)C(O)C(O)C1O)C=C2C(=O)O (single isomer, unassigned) [aPM5e, Myrtenic acid-4-O-GlcA]: 0.91
CC1(C)C2CCC(C(=O)OC3OC(C(=O)O)C(O)C(O)C3O)C1C2 (single isomer, unassigned) [aPM4e, Dihydromyrtenic acid-GlcA]: 1.26
CC1(C)C2CC1C(OC1OC(C(=O)O)C(O)C(O)C1O)C=C2C(=O)O (single isomer, unassigned) [aPM5f, Myrtenic acid-4-O-GlcA]: 1.53
CC1=CC(OC2OC(C(=O)O)C(O)C(O)C2O)C2CC1C2(C)C (centres unmarked) [aPM2b, verbenol glucuronide]: 3.46

## Input Item CC1(C)C2CC=C(C(=O)OC3OC(C(=O)O)C(O)C(O)C3O)C1C2 (single isomer, unassigned) [aPM3a, Myrtenic acid-GlcA] has what recorded Ka, first-order generation constant?
## Output 1.80

## Input I have this compound here, CC1(C)C2CC1C(C(=O)O)=CC2=O (centres unmarked) [aPM1, Myrtenic acid-4-one] , and I need its recorded Ka, first-order generation constant.
## Output 1.25

## Input Looking for the measured Ka, first-order generation constant of CC1(C)C2CCC(C(=O)OC3OC(C(=O)O)C(O)C(O)C3O)C1C2 (single isomer, unassigned) [aPM4a, Dihydromyrtenic acid-GlcA] , can you help?
## Output 2.12

## Input Please give the measured Ka, first-order generation constant for this compound: CC1(C)C2CC1C(OC1OC(C(=O)O)C(O)C(O)C1O)C=C2C(=O)O (single isomer, unassigned) [aPM5a, Myrtenic acid-4-O-GlcA]
## Output 1.64

## Input Name the recorded Ka, first-order generation constant for CC1(C)C2CCC(C(=O)OC3OC(C(=O)O)C(O)C(O)C3O)C1C2 (single isomer, unassigned) [aPM4b, Dihydromyrtenic acid-GlcA] .
## Output 1.34

## Input Item under review: CC1(C)C2CCC(C(=O)OC3OC(C(=O)O)C(O)C(O)C3O)C1C2 (single isomer, unassigned) [aPM4c, Dihydromyrtenic acid-GlcA] . Reported Ka, first-order generation constant?
## Output 1.65
